tgt: HLA-B*08:02
assayProcedure: IEDB peptide-MHC binding, purified MHC/direct/fluorescence; filed as Kd, often an IC50 or EC50 that approximates it; bounds were set here for any values at or beyond the usual limits of such assays
experimentalConditions: source organism: Campylobacter jejuni
assayEndpoint: Kd

Lab book: Kd of `VSIRGSHHK` noted as ≥ 20 µM

---

tgt: HLA-C*03:03
assayProcedure: IEDB peptide-MHC binding, purified MHC/direct/fluorescence; filed as Kd, often an IC50 or EC50 that approximates it; bounds were set here for any values at or beyond the usual limits of such assays
experimentalConditions: source organism: Orthohantavirus
assayEndpoint: pKd
# pKd = -log10(concentration in molar units)

response.value for `FMFNDLLKL` (field: pKd) = 5.90

---

tgt: HLA-A*31:01
assayProcedure: IEDB peptide-MHC binding, purified MHC/competitive/fluorescence; filed as Kd, often an IC50 or EC50 that approximates it; bounds were set here for any values at or beyond the usual limits of such assays
experimentalConditions: source organism: Influenza A virus H3N2
assayEndpoint: Kd

response.value for `GTFGPVHFR` (field: Kd) = ≤ 1 nM

---

tgt: HLA-B*58:01
assayProcedure: IEDB peptide-MHC binding, purified MHC/direct/fluorescence; filed as Kd, often an IC50 or EC50 that approximates it; bounds were set here for any values at or beyond the usual limits of such assays
experimentalConditions: source organism: Mycobacterium tuberculosis
What Kd was measured for each of the following?

Lab note: sequence `YPARVKCAL` tested on HLA-B*58:01; recorded Kd was ≥ 20 µM

Entry `FHVNPAFVL` , tested on HLA-B*58:01, has a reported Kd of ≥ 20 µM

Item `RPRCAYLPF` was tested on HLA-B*58:01; the reported Kd is ≥ 20 µM

GET /values?item= `GAITSAHFM` &system= HLA-B*58:01 returns Kd: 0.905 µM

---

tgt: HLA-A*02:19
assayProcedure: IEDB peptide-MHC binding, purified MHC/competitive/fluorescence; filed as Kd, often an IC50 or EC50 that approximates it; bounds were set here for any values at or beyond the usual limits of such assays
experimentalConditions: source organism: Cryptosporidium parvum Iowa II
assayEndpoint: Kd

The sequence `LTAPCDIYV` showed Kd equal to ≥ 20 µM

---

tgt: HLA-B*58:01
assayProcedure: IEDB peptide-MHC binding, purified MHC/direct/fluorescence; filed as Kd, often an IC50 or EC50 that approximates it; bounds were set here for any values at or beyond the usual limits of such assays
experimentalConditions: source organism: Mammarenavirus lassaense
assayEndpoint: Kd

Entry `NQFGTMPSL` , Kd reported as ≥ 20 µM

---

tgt: HLA-A*31:01
assayProcedure: IEDB peptide-MHC binding, purified MHC/competitive/radioactivity; filed as Kd, often an IC50 or EC50 that approximates it; bounds were set here for any values at or beyond the usual limits of such assays
experimentalConditions: source organism: Triticum aestivum
assayEndpoint: pKd
# pKd: negative log10 of molar concentration; output just the value

Consider `LQQHNIVHGK` . Its measured pKd is 5.62

---

tgt: HLA-B*38:01
assayProcedure: IEDB peptide-MHC binding, purified MHC/direct/fluorescence; filed as Kd, often an IC50 or EC50 that approximates it; bounds were set here for any values at or beyond the usual limits of such assays
experimentalConditions: source organism: Variola virus
assayEndpoint: Kd (nM)
The reply should be a number in nM, with the unit left off.

Per the record, `IHIPGDTLF` has Kd of 392
